B1: Hairpin Ribozyme (parent)
chain: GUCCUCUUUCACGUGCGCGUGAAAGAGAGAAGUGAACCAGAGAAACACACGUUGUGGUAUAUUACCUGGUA

# Variants of: B1
# Measurement Protocol: self-cleavage, relative activity (ratio to wild type); higher = more cleavage; co-transcriptional
Readout Name: self-cleavage

variant_name="G27U C37U" numeric_value=0.22
variant_name="A44C C46A" numeric_value=0.141
variant_name="A28U A44G" numeric_value=0.25
variant_name="G13U U55A" numeric_value=0.263
variant_name="G15U G34C" numeric_value=1.33
variant_name="G32A A71C" numeric_value=0.15
variant_name="U52A U70G" numeric_value=0.86
variant_name="G42U U60C" numeric_value=0.241
variant_name="A26U G27A" numeric_value=0.228
variant_name="U8A A24C" numeric_value=0.626
variant_name="U33A U53C" numeric_value=0.264
variant_name="C16U A44G" numeric_value=0.101
variant_name="U55C C66A" numeric_value=0.13
variant_name="G42A G69C" numeric_value=0.118
variant_name="U2G G32C" numeric_value=0.155
variant_name="C4A U20A" numeric_value=0.0852
variant_name="U8C C50A" numeric_value=0.144
variant_name="A11C G29A" numeric_value=0.128
variant_name="G17U U70G" numeric_value=0.739
variant_name="A30C A41C" numeric_value=0.315
variant_name="U2A G19A" numeric_value=0.216
variant_name="U5C C10U" numeric_value=0.423
variant_name="U5A U62C" numeric_value=0.224
variant_name="A43G U52C" numeric_value=0.064
variant_name="C10G C65U" numeric_value=0.307
variant_name="C12A U63A" numeric_value=0.102
variant_name="U14A A44U" numeric_value=0.118
variant_name="A22U A28G" numeric_value=1.13
variant_name="C37A A71C" numeric_value=0.526
variant_name="C48U G56C" numeric_value=0.104
variant_name="G27C U33C" numeric_value=0.117
variant_name="U5A G29A" numeric_value=0.156
variant_name="G29C G51A" numeric_value=0.125
variant_name="G34A A44C" numeric_value=0.223
variant_name="A35G G42U" numeric_value=0.304
variant_name="G29C G57C" numeric_value=0.131
variant_name="G21A C38U" numeric_value=0.466
variant_name="G13C A39G" numeric_value=0.186
variant_name="U9A A59U" numeric_value=0.14
variant_name="G40A U70A" numeric_value=0.158
variant_name="U33G G42A" numeric_value=0.0778
variant_name="G29A A31G" numeric_value=0.145
